System: angiogenesis genes in dermal microvascular endothelial cells
assay.details: Real time RT-PCR of angiogenesis gene expression during endothelial tube formation
Assay type: cell-based
assay.conditions: 1 μM SM, 24 hours
endpoint.name: Log2 fold-change of gene expression: EPHB4
Kindly provide the number alone.

What does the record list as Log2 fold-change of gene expression: EPHB4 for CCC(=O)OCN1C(=O)C=CC1=O ?
−0.8

What does the record list as Log2 fold-change of gene expression: EPHB4 for CC1CCN(CC[S-])CC1.O.O.[Cl][Pt+] ?
0.9

What does the record list as Log2 fold-change of gene expression: EPHB4 for COc1ccc(CC2C(=O)NC(C)C(=O)N(C)C3Cc4ccc(cc4)Oc4cc(ccc4O)CC(C(=O)NC(C)C(=O)NC(C)C(=O)N2C)N(C)C3=O)cc1 (stereo not drawn) ?
0.3

What does the record list as Log2 fold-change of gene expression: EPHB4 for COC(=O)C1CC(=O)C(C(=O)OC)CC1=O (stereo not drawn) ?
−0.5

What does the record list as Log2 fold-change of gene expression: EPHB4 for COc1cc2cc(c1Cl)N(C)C(=O)CC(OC(=O)C(C)C)C1(C)OC1C(C)C1CC(O)(NC(=O)O1)C(OC)/C=C/C=C(\C)C2 (stereo not drawn) ?
−0.5

What does the record list as Log2 fold-change of gene expression: EPHB4 for O=C1C(=Cc2ccccc2)C(NC2CCCCC2)c2ccccc21 (stereo not drawn) ?
−1.2

====

System: angiogenesis genes in dermal microvascular endothelial cells
assay.details: Real time RT-PCR of angiogenesis gene expression during endothelial tube formation
Assay type: cell-based
assay.conditions: 1 μM SM, 24 hours
Assignment: determine reported Log2 fold-change of gene expression: Acvrl1 for the given compounds.
Kindly provide the number alone.

What does the record list as Log2 fold-change of gene expression: Acvrl1 for CC1CCN(CC[S-])CC1.O.O.[Cl][Pt+] ?
−1.6

What does the record list as Log2 fold-change of gene expression: Acvrl1 for COC(=O)C1CC(=O)C(C(=O)OC)CC1=O (stereo not drawn) ?
−1.3

What does the record list as Log2 fold-change of gene expression: Acvrl1 for COc1cc2cc(c1Cl)N(C)C(=O)CC(OC(=O)C(C)C)C1(C)OC1C(C)C1CC(O)(NC(=O)O1)C(OC)/C=C/C=C(\C)C2 (stereo not drawn) ?
0.0

What does the record list as Log2 fold-change of gene expression: Acvrl1 for CCC(=O)OCN1C(=O)C=CC1=O ?
−0.6

What does the record list as Log2 fold-change of gene expression: Acvrl1 for COc1ccc(CC2C(=O)NC(C)C(=O)N(C)C3Cc4ccc(cc4)Oc4cc(ccc4O)CC(C(=O)NC(C)C(=O)NC(C)C(=O)N2C)N(C)C3=O)cc1 (stereo not drawn) ?
−1.9

What does the record list as Log2 fold-change of gene expression: Acvrl1 for O=C1C(=Cc2ccccc2)C(NC2CCCCC2)c2ccccc21 (stereo not drawn) ?
−1.2

====

target.of.assay: FGFR1 (Homo sapiens)
Sequence (P11362 398-822 limits assumed): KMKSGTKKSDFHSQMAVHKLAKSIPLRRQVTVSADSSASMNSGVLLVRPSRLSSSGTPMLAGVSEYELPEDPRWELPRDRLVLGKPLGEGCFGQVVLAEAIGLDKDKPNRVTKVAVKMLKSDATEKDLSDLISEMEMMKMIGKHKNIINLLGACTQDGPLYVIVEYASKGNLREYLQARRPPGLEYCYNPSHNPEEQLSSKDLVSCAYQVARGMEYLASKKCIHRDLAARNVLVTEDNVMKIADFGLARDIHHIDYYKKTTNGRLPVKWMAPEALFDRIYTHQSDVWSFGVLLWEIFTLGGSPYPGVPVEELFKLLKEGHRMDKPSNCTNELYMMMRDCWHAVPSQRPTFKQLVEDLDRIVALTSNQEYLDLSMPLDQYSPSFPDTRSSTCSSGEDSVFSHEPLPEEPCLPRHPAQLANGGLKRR
assay.details: SelectScreen kinase activity profiling, FGFR1
Format: biochemical
Design: concentration or dose not given beside the values
assay.conditions: first of two independent trials
Assignment: determine reported % Inhibition for the given compounds.
// units = %; emit number, no label

What does the record list as % Inhibition for Cc1cc(O)c(-c2cc(O)c(C)cc2O)cc1O ?
1

What does the record list as % Inhibition for CSC(=[SH+])[N-]N=C(c1ccccn1)c1ccccn1.[Cu][Br] ?
5

What does the record list as % Inhibition for O=[N+]([O-])c1ccc(S(=O)(=O)Cc2ccccc2)c([N+](=O)[O-])c1 ?
−3

====

System: angiogenesis genes in dermal microvascular endothelial cells
assay.details: Real time RT-PCR of angiogenesis gene expression during endothelial tube formation
Format: cell-based
assay.conditions: 1 μM SM, 24 hours
# note: boundary value -1 maps to FALSE; Log2 fold-change of gene expression: MDK below it maps to TRUE

Field: below-cutoff. Rule: recorded Log2 fold-change of gene expression: MDK strictly less than -1. Subject: COc1cc2cc(c1Cl)N(C)C(=O)CC(OC(=O)C(C)C)C1(C)OC1C(C)C1CC(O)(NC(=O)O1)C(OC)/C=C/C=C(\C)C2 (stereo not drawn) [compound 292222]
FALSE

Field: below-cutoff. Rule: recorded Log2 fold-change of gene expression: MDK strictly less than -1. Subject: O=C1C(=Cc2ccccc2)C(NC2CCCCC2)c2ccccc21 (stereo not drawn) [compound 150117]
TRUE

Field: below-cutoff. Rule: recorded Log2 fold-change of gene expression: MDK strictly less than -1. Subject: COC(=O)C1CC(=O)C(C(=O)OC)CC1=O (stereo not drawn) [Compound 122567]
FALSE

Field: below-cutoff. Rule: recorded Log2 fold-change of gene expression: MDK strictly less than -1. Subject: CCC(=O)OCN1C(=O)C=CC1=O [compound 19630]
TRUE

Field: below-cutoff. Rule: recorded Log2 fold-change of gene expression: MDK strictly less than -1. Subject: CC1CCN(CC[S-])CC1.O.O.[Cl][Pt+] [compound 292596]
TRUE

====

Assignment: determine reported Log2 fold-change of gene expression: CXCL10 for the given molecules.
Test system: angiogenesis genes in dermal microvascular endothelial cells
assay.details: Real time RT-PCR of angiogenesis gene expression during endothelial tube formation
Type: cell-based
assay.conditions: 1 μM SM, 24 hours

What does the record list as Log2 fold-change of gene expression: CXCL10 for COc1cc2cc(c1Cl)N(C)C(=O)CC(OC(=O)C(C)C)C1(C)OC1C(C)C1CC(O)(NC(=O)O1)C(OC)/C=C/C=C(\C)C2 (stereo not drawn) [compound 292222] ?
0.8

What does the record list as Log2 fold-change of gene expression: CXCL10 for O=C1C(=Cc2ccccc2)C(NC2CCCCC2)c2ccccc21 (stereo not drawn) [compound 150117] ?
−1.7

What does the record list as Log2 fold-change of gene expression: CXCL10 for COc1ccc(CC2C(=O)NC(C)C(=O)N(C)C3Cc4ccc(cc4)Oc4cc(ccc4O)CC(C(=O)NC(C)C(=O)NC(C)C(=O)N2C)N(C)C3=O)cc1 (stereo not drawn) [compound 259969] ?
2.8

What does the record list as Log2 fold-change of gene expression: CXCL10 for CC1CCN(CC[S-])CC1.O.O.[Cl][Pt+] [compound 292596] ?
2.5

What does the record list as Log2 fold-change of gene expression: CXCL10 for COC(=O)C1CC(=O)C(C(=O)OC)CC1=O (stereo not drawn) [Compound 122567] ?
3.7

What does the record list as Log2 fold-change of gene expression: CXCL10 for CCC(=O)OCN1C(=O)C=CC1=O [compound 19630] ?
4.7

====

Assignment: determine reported cytotoxicity for the given compounds.
assay.details: in vitro
assay.conditions: pig
Structures can show the parent of a compound that is named as a salt.
// units = %; emit number, no label

What does the record list as cytotoxicity for O=C1C(=Cc2cccnc2)SC(=S)N1Cc1ccco1 [Compound 14] ?
6.51

What does the record list as cytotoxicity for CN(C)CCC(=O)[C@@]1(O)CC[C@H]2[C@@H]3CC=C4C[C@@H](O)CC[C@]4(C)[C@H]3CC[C@@]21C [Compound 27] ?
7.9

What does the record list as cytotoxicity for CC(C)(O)/C=C/C(=O)C(C)(O)C1C(O)CC2(C)C3CC=C4C(C=C(O)C(=O)C4(C)C)C3(C)C(=O)CC12C (centres unmarked) [Compound 54] ?
9.26

What does the record list as cytotoxicity for CC1(C)N=C(N)N=C(N)N1c1cccc(CSc2ccccc2)c1 [Compound 21, hydrochloride] ?
6.57

What does the record list as cytotoxicity for OC(c1cc(-c2ccc(Cl)cc2)nc2ccccc12)C1CCCCN1 (centres unmarked) [Compound 15] ?
7.93

What does the record list as cytotoxicity for S=C1SCN(C2CCCCCCCCCCC2)CN1C1CCCCCCCCCCC1 [Compound 52] ?
9.58

What does the record list as cytotoxicity for COc1cc2cc(c1Cl)N(C)C(=O)CC(OC(=O)C(C)C)C1(C)OC1C(C)C1CC(O)(NC(=O)O1)C(OC)/C=C/C=C(\C)C2 (centres unmarked) [Compound 56] ?
7.52

What does the record list as cytotoxicity for CC1(C)N=C(N)N=C(N)N1c1cccc(OCc2cccc([N+](=O)[O-])c2)c1 [Compound 23] ?
7.02

====

Test system: angiogenesis genes in dermal microvascular endothelial cells
assay.details: Real time RT-PCR of angiogenesis gene expression during endothelial tube formation
Assay type: cell-based
assay.conditions: 1 μM SM, 24 hours
# cutoff 0.4 applies to Log2 fold-change of gene expression: BMP1; >= gives Yes, < gives No

Could you please find out whether COc1ccc(CC2C(=O)NC(C)C(=O)N(C)C3Cc4ccc(cc4)Oc4cc(ccc4O)CC(C(=O)NC(C)C(=O)NC(C)C(=O)N2C)N(C)C3=O)cc1 (stereo not drawn) has Log2 fold-change of gene expression: BMP1 that meets 0.4 or exceeds it?
No

Could you please find out whether COC(=O)C1CC(=O)C(C(=O)OC)CC1=O (stereo not drawn) has Log2 fold-change of gene expression: BMP1 that meets 0.4 or exceeds it?
Yes

Could you please find out whether CC1CCN(CC[S-])CC1.O.O.[Cl][Pt+] has Log2 fold-change of gene expression: BMP1 that meets 0.4 or exceeds it?
No

Could you please find out whether CCC(=O)OCN1C(=O)C=CC1=O has Log2 fold-change of gene expression: BMP1 that meets 0.4 or exceeds it?
Yes

Could you please find out whether O=C1C(=Cc2ccccc2)C(NC2CCCCC2)c2ccccc21 (stereo not drawn) has Log2 fold-change of gene expression: BMP1 that meets 0.4 or exceeds it?
No
